System: T1, biotinylated peptide representing ECL2 of C5aR1 (Homo sapiens, UniProt P21730)
T1 construct: cyclic ECL2 peptide spanning from residues R175 to C188
Procedure Summary: Epitope mapping by biolayer interferometry, ECL2 peptide
Assay type: binding
Set-up: key: “+” indicates binding to the listed peptide; “−” indicates lack of binding to the listed peptide
Experimental Conditions: biolayer interferometry, 10 μg/mL of antibody, biotinylated peptide on streptavidin biosensor
Attribute Measured: Binding to Cyclic ECL2 peptide

[[record]]
molecule = "clone 583: anti-C5aR1 Site I antibody; VH SEQ ID NO: 536, VL SEQ ID NO: 595 (antibody, V domains shown) VH: EVQLVESGGGLVKPGGSLKLSCAASGFTFNAYAMSWVRQTPEKRLEWVASISTGGNTYCPDSVKDRFTVSRDNVRNILYLQMSSLRSEDTAMYYCTRGYQRFSGFAYWGQGTLVTVS VL: DVVMTQTPLSPPVSLGYQASISCRSSQSLVHSNGNTYLNWYLQKPGQSPKLLIYKVSNRLSGVPDRFSGSGSGTDFTLKISRVETEDLGVYFCSQSTHVPYTFGGGTKLEIK"
value_measured = "−"

[[record]]
molecule = "clone 11v2: anti-C5aR1 Site II antibody; VH SEQ ID NO: 482, VL SEQ ID NO: 542 (antibody, V domains shown) VH: QVQLQQSGPELVKPGASVKISCKASGYSFSSSWMNWVKQRPGKGLEWIGRISPGDGDTRYSGKFKGKATLTADKSSSTAYMQVTSLTSEDSAIYFCVRFLITSTRYVMDYWGQGTTVTVSS VL: DVVMTQTPLSLPVSLGDQASISCRSSQSLVHSNGNTYLHWYLQKPGQSPKLLIYKVSNRFSGVPDRFSGSGSGTDFTLKISRVEAEDLGVYFCSQSTLVPPTFGGGTKLEIK"
value_measured = "+"


meta.source: patent US12187807B2
